Assay: Photochromic PMMA cast film: initial coloration density, maximum absorption wavelength and fatigue life in xenon fadeometer (Example 9);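 further: initial color density is an absorbance value so the % unit is wrong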
Assay type: physicochemical
Conditions: PMMA cast film 0.1 mm, xenon light, no stabilizer
// assign 1.0 if Initial color density falls strictly below 0.6%, else 0.0 (ties count as 0.0)

>  <compound>
CCCC1CC1C1=C2C(=O)N(C(C)C(C)=O)C(=O)C2C2(c3oc(OC)cc31)C1CCCC2CCC1 (stereo not shown) [(30)]

>  <answerLabel>
0.0

$$$$
>  <compound>
O=C(CN1C(=O)C2=C(C3CC3)c3c(sc4c3CCCC4)C3(C4CC5CC(C4)CC3C5)C2C1=O)NCCCl (stereo not shown) [(46)]

>  <answerLabel>
0.0

$$$$
>  <compound>
N#CCN1C(=O)C2=C(C3CC3)c3ccsc3C3(C4CCC3CC4)C2C1=O (stereo not shown) [(2)]

>  <answerLabel>
0.0

$$$$
>  <compound>
CCC(C(=O)OCCc1ccc2ccccc2c1)N1C(=O)C2=C(C)c3ccsc3C3(C4CC5CC(C4)CC3C5)C2C1=O (stereo not shown) [(A), reference compound]

>  <answerLabel>
1.0

$$$$
>  <compound>
CCCCC1CC1C1=C2C(=O)N(C(C)(C)C#N)C(=O)C2C2(c3c(OC)cc(OC)cc31)C1CCC2(CCCC)CC1 (stereo not shown) [(17)]

>  <answerLabel>
1.0

$$$$
>  <compound>
O=C1OC(=O)C2C1=C(C1CC1)c1c(oc3ccccc13)C21C2CCC1CC2 (stereo not shown) [(52)]

>  <answerLabel>
0.0

$$$$
